Cited source: the supplement of paper PMC6757056

B1: library; a variant is named by its letters at N, in order (parent)
chain: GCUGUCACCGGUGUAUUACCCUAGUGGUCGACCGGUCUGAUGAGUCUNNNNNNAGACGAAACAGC

variants of: B1; experiment: normalized RNA/DNA level with ligand (relative to sTRSVctl = 100) (log10 (% of sTRSVctl)); ligand: hypoxanthine (xanthine aptamer); higher = less ribozyme self-cleavage, higher mRNA level; conditions: ligand concentration (+) RNA-Seq: 5 mM, HEK293T, reporter: mCherry (pCS4076), ligand present: yes
Entries and their normalized RNA/DNA level with ligand (log10) values follow.
recorded metric: normalized RNA/DNA level with ligand (log10)

{"change": "GCGCUU", "reported": 1.96}
{"change": "AAUAAG", "reported": 1.83}
{"change": "CCAUCA", "reported": 1.97}
{"change": "UGAUCU", "reported": 2.02}
{"change": "GGCAAA", "reported": 1.96}
{"change": "CGGCAU", "reported": 1.9}
{"change": "ACGCCC", "reported": 1.94}
{"change": "UCCGGU", "reported": 1.98}
{"change": "UGAGAG", "reported": 1.87}
{"change": "GGAUCC", "reported": 1.96}
{"change": "UUCGGG", "reported": 1.95}
{"change": "ACUAGG", "reported": 1.83}
{"change": "UUUGGU", "reported": 1.98}
{"change": "UACGAG", "reported": 1.88}
{"change": "CGGCCU", "reported": 2.03}
{"change": "UAGCAG", "reported": 1.87}
{"change": "UCAGCC", "reported": 2.04}
{"change": "GCACUU", "reported": 1.96}
{"change": "CUUAGA", "reported": 1.98}
{"change": "UGACAG", "reported": 1.93}
{"change": "UUACGA", "reported": 1.92}
{"change": "GGCACG", "reported": 1.92}
{"change": "ACUGCU", "reported": 1.91}
{"change": "GUCCCU", "reported": 1.93}
{"change": "AUAUUA", "reported": 1.87}
{"change": "CGGGCA", "reported": 1.98}
{"change": "UUAGGC", "reported": 1.95}
{"change": "UGCUCU", "reported": 1.91}
{"change": "GCAACU", "reported": 1.97}
{"change": "GAUCGC", "reported": 1.93}
{"change": "CAACAU", "reported": 1.87}
{"change": "ACGAAC", "reported": 1.89}
{"change": "GGCGAA", "reported": 1.92}
{"change": "CUAGAC", "reported": 1.9}
{"change": "UAAAUU", "reported": 1.92}
{"change": "GGCUUU", "reported": 2.03}
{"change": "ACCAAU", "reported": 1.9}
{"change": "AAACCC", "reported": 1.95}
{"change": "UAGGCG", "reported": 1.89}
{"change": "UUCCUG", "reported": 1.93}
